- assay: Permeability of compound in MDCK cells
- Assay type: ADME, cell-based, Canis lupus familiaris
- testContext: dog, read-out: permeability
measurementName: Papp

[
  {
    "compound": "CCOC(=O)C1=C[C@@H](OC(CC)CC)[C@H](NC(C)=O)[C@@H](N)C1 [OSELTAMIVIR]",
    "result": "58 ×10⁻⁶ cm/s"
  },
  {
    "compound": "CCC(CC)O[C@@H]1C=C(C(=O)OCCN2CCOCC2)C[C@H](N)[C@H]1NC(C)=O",
    "result": "44 ×10⁻⁶ cm/s"
  }
]

----------
- assay: Metabolic stability in mouse liver microsomes assessed as clearance measured upto 60 mins in presence of NADPH regenerating system by LC-MS/MS analysis
- Format: ADME, Microsome
- testContext: read-out: CLH
measurementName: microsomal CLint (µL/min/mg)

[
  {
    "itemSmiles": "CCC(CC)O[C@@H]1C=C(C(=O)OCCN2CCOCC2)C[C@H](N)[C@H]1NC(C)=O",
    "resultUnits": "µL/min/mg",
    "resultNumber": 7.53
  }
]

----------
- assay: AUC infinity in male C57/6J mouse at 15 mg/kg, ip measured upto 24 hrs by LC-MS/MS analysis
- Type: ADME, organism-based
- testContext: in vivo

[
  {
    "itemSmiles": "CCC(CC)O[C@@H]1C=C(C(=O)OCCN2CCOCC2)C[C@H](N)[C@H]1NC(C)=O",
    "resultUnits": "ng·h/mL",
    "AUC(0-inf)": 2100
  }
]

----------
- assay: Apparent […] clearance in male C57/6J mouse at 15 mg/kg, ip measured upto 24 hrs by LC-MS/MS analysis
- Type: ADME, organism-based
- testContext: in vivo

[
  {
    "itemSmiles": "CCC(CC)O[C@@H]1C=C(C(=O)OCCN2CCOCC2)C[C@H](N)[C@H]1NC(C)=O",
    "CL/F": "120 mL/min/kg"
  }
]

----------
- assay: Metabolic stability in mouse liver microsomes assessed as parent compound remaining measured after 60 mins in presence of NADPH regenerating system by LC-MS/MS analysis
- Type: ADME, Microsome
- testContext: read-out: Stability

[
  {
    "itemSmiles": "CCC(CC)O[C@@H]1C=C(C(=O)OCCN2CCOCC2)C[C@H](N)[C@H]1NC(C)=O",
    "remaining at 1 h, %": 77.2
  }
]

----------
- assay: Metabolic stability in mouse liver microsomes assessed as parent compound remaining measured after 60 mins in absence of NADPH regenerating system by LC-MS/MS analysis
- Type: ADME, Microsome
- testContext: read-out: Stability
measurementName: remaining at 1 h

[
  {
    "itemSmiles": "CCC(CC)O[C@@H]1C=C(C(=O)OCCN2CCOCC2)C[C@H](N)[C@H]1NC(C)=O",
    "measurementName": "remaining at 1 h",
    "result": "97.2%"
  }
]

----------
- assay: Half life in male C57/6J mouse at 15 mg/kg, ip measured upto 24 hrs by LC-MS/MS analysis
- Format: ADME, organism-based
- testContext: in vivo

[
  {
    "itemSmiles": "CCC(CC)O[C@@H]1C=C(C(=O)OCCN2CCOCC2)C[C@H](N)[C@H]1NC(C)=O",
    "half-life, min": 142
  }
]

----------
- assay: Metabolic stability in mouse liver microsomes assessed as parent compound remaining measured after 15 mins in presence of NADPH regenerating system by LC-MS/MS analysis
- Assay type: ADME, Microsome
- testContext: read-out: Stability

[
  {
    "itemSmiles": "CCC(CC)O[C@@H]1C=C(C(=O)OCCN2CCOCC2)C[C@H](N)[C@H]1NC(C)=O",
    "resultUnits": "%",
    "remaining at 0.25 h": 89.9
  }
]
